Where do the numbers come from? From patent US10202353B2.

I'd appreciate it if you could supply CC50 at 5 days values for the items below.
assay: Test B: Cytotoxicity Assay; type: cell-based; conditions: human, uninfected MT4 cells, same protocol as Test A

Fill in reported CC50 at 5 days for this entry: CN(C(=O)[C@H](Cn1cccn1)NC(=O)Cn1nc(C(F)(F)F)c2c1CCCC2)c1ccccc1 [Compound 12] > 53 µM

Item COc1ccc(N(C)C(=O)[C@H](Cc2cc(F)cc(F)c2)NC(=O)Cn2ncc3c2CCCC3)cc1 [Compound 31] : provide CC50 at 5 days > 53 µM

Assign CC50 at 5 days to the following record: CN(C(=O)[C@H](Cc1cc(F)cc(F)c1)NC(=O)Cn1c(N)nc2c1c(=O)[nH]c(=O)n2C)c1ccc(Cl)cc1 [Compound 32] > 53 µM
